B1: Hairpin Ribozyme (parent)
chain: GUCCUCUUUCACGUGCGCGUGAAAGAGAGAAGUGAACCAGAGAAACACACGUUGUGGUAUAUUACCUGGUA

- Variants of: B1
- assaySummary: self-cleavage, relative activity (ratio to wild type); higher = more cleavage; co-transcriptional
Reported self-cleavage values for a set of variants
Hey, just send me the number, nothing else.

q: Value lookup for self-cleavage; key = U2G C16A
a: 0.398

q: Would you mind telling me what self-cleavage value was observed for C3A G13A ?
a: 0.628

q: Bench note: what self-cleavage did U33G U67C show?
a: 0.111

q: I would be grateful if you could share the reported self-cleavage for G19C U67C .
a: 0.176

q: I'd like to know its self-cleavage. The variant in question is A24G A36U
a: 0.397

Now for a further variant.
q: Entry under review: C6U U7A . Reported self-cleavage?
a: 0.515
